target: T1, recombinant HSP70 (Heat Shock 70 kDa Protein) (human, UniProt P0DMV8 1-641); test: BLI (Octet Red), biotinylated A8 on streptavidin sensors, HSP70 in solution, 1:1 model global fit
T1 construct: also called HSP72; human HSP70
T1 sequence (P0DMV8 whole entry): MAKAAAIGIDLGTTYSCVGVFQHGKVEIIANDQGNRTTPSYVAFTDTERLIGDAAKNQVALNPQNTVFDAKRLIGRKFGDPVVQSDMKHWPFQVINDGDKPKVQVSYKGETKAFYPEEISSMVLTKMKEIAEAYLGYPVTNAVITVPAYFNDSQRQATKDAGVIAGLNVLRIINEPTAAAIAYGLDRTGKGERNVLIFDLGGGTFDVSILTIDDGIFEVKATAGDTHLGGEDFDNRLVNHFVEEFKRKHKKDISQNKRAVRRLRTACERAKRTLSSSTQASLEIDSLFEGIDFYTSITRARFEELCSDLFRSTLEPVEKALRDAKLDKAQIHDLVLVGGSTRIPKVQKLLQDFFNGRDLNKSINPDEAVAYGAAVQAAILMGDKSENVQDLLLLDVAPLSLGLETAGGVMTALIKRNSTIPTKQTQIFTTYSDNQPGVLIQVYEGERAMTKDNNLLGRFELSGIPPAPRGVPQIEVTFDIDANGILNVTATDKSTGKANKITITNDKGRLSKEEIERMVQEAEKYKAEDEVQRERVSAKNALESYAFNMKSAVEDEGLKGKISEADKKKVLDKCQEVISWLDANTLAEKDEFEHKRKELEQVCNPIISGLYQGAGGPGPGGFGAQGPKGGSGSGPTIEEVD

# binder, Kd
measured = [
    ("SPWPRPTY (biotinylated with EZ-Link NHS-PEG4-biotin when immobilised on streptavidin sensors for BLI (site not stated); no modification stated for the solution assays, also called A8 peptide aptamer; HSP70 peptide aptamer A8) [peptide aptamer A8]", "2.2 nM"),
]
